# target-or-system: T1, VEGF110 (hVEGF110, aa 207-318) (human, UniProt P15692 207-318)
# T1 sequence (looked up): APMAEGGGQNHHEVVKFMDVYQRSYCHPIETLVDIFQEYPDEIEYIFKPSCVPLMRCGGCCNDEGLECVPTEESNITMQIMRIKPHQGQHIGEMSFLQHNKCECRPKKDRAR
# measurement-description: cell-based or functional assay
measure-name: IC50 (M), inhibition of VEGFR1 signaling (luciferase), 20 pM VEGF110
A number alone suffices; assume M.

IN: What does the data say about its IC50 (M), inhibition of VEGFR1 signaling (luciferase), 20 pM VEGF110? Entry: REGN3, full-length VEGF Trap (aflibercept) (Fc fusion, human, UniProt P17948 129-231, looked up, not shown: a dimerising Fc or GST, range 129-231;range 226-327; also called Eylea; VEFGR1d2-VEGFR2d3 VEGF Trap) SDTGRPFVEMYSEIPEIIHMTEGRELVIPCRVTSPNITVTLKKFPLDTLIPDGKRIIWDSRKGFIISNATYKEIGLLTCEATVNGHLYKTNYLTHRQTNTIIDVVLSPSHGIELSVGEKLVLNCTARTELNVGIDFNWEYPSSKHQHKKLVNRDLKTQSGSEMKKFLSTLTIDGVTRSDQGLYTCAASSGLMTKKNSTFVRVHEK
OUT: 1.15e-11

IN: Returns the measured IC50 (M), inhibition of VEGFR1 signaling (luciferase), 20 pM VEGF110 for the input binder. Input: REGN7483^F (homodimer mini-trap, FabRICATOR cleaved from aflibercept) (receptor, N-linked glycans at N36, N68, N123, N196 (Table C), Disulfide-linked homodimer made by IdeS cleavage of aflibercept; also called dimer mini-trap from FabRICATOR (IdeS) cleavage of REGN3) SDTGRPFVEMYSEIPEIIHMTEGRELVIPCRVTSPNITVTLKKFPLDTLIPDGKRIIWDSRKGFIISNATYKEIGLLTCEATVNGHLYKTNYLTHRQTNTIIDVVLSPSHGIELSVGEKLVLNCTARTELNVGIDFNWEYPSSKHQHKKLVNRDLKTQSGSEMKKFLSTLTIDGVTRSDQGLYTCAASSGLMTKKNSTFVRVHEKDKTHTCPPCPAPELLG
OUT: 1.04e-11

IN: I am curious: what IC50 (M), inhibition of VEGFR1 signaling (luciferase), 20 pM VEGF110 value has been reported for REGN7483^R (homodimer mini-trap, recombinant) (receptor, N-linked glycans at N36, N68, N123, N196 (Table C), also called Recombinant dimer mini-trap) SDTGRPFVEMYSEIPEIIHMTEGRELVIPCRVTSPNITVTLKKFPLDTLIPDGKRIIWDSRKGFIISNATYKEIGLLTCEATVNGHLYKTNYLTHRQTNTIIDVVLSPSHGIELSVGEKLVLNCTARTELNVGIDFNWEYPSSKHQHKKLVNRDLKTQSGSEMKKFLSTLTIDGVTRSDQGLYTCAASSGLMTKKNSTFVRVHEKDKTHTCPPCPAPELLG ?
OUT: 1.3e-11

IN: Could you share which IC50 (M), inhibition of VEGFR1 signaling (luciferase), 20 pM VEGF110 value was measured for REGN7851 (VEGF mini-trap-hFc …) (receptor, Recombinant homodimer; also called REGN7851 (CPPCPPCPPC)) SDTGRPFVEMYSEIPEIIHMTEGRELVIPCRVTSPNITVTLKKFPLDTLIPDGKRIIWDSRKGFIISNATYKEIGLLTCEATVNGHLYKTNYLTHRQTNTIIDVVLSPSHGIELSVGEKLVLNCTARTELNVGIDFNWEYPSSKHQHKKLVNRDLKTQSGSEMKKFLSTLTIDGVTRSDQGLYTCAASSGLMTKKNSTFVRVHEKDKTHTCPPCPPCPPC ?
OUT: 1.45e-11
